Property: Ki; scope: individual compounds
# TARGET_ENTITY: human H4 receptor (Homo sapiens, UniProt Q9H3N8)
# Sequence (Q9H3N8 whole entry): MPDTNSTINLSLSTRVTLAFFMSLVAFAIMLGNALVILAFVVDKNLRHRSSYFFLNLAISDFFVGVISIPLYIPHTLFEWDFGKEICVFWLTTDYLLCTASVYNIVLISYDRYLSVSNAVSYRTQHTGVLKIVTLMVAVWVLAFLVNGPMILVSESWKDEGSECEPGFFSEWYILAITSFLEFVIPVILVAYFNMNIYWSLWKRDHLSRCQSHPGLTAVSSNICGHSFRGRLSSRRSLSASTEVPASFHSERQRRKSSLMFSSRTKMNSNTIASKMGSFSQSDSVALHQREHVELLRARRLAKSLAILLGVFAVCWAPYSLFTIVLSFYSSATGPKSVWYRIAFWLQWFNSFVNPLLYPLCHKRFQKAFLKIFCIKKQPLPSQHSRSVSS
# PROTOCOL: biochemical
Counter-ions that a name gives are not always drawn.

{"columns": ["COMPOUND", "TARGET_ENTITY", "Ki"],
 "data": [
  ["CN1CC(COC2c3ccccc3CCn3cc(I)nc32)C1 (stereo not shown)", "human H4 receptor (Homo sapiens, UniProt Q9H3N8)", "< 1 µM"],
  ["CN1CCC(OC2c3ccccc3CCn3cc(-c4ccc(C#N)cc4)nc32)CC1 (stereo not shown)", "human H4 receptor (Homo sapiens, UniProt Q9H3N8)", "< 0.03 µM"],
  ["CN1CCC(OC2c3ccccc3CCn3cc(-c4ccc(N(C)C)cc4)nc32)CC1 (stereo not shown) [Example 35, oxalate]", "human H4 receptor (Homo sapiens, UniProt Q9H3N8)", "< 1 µM"]
]}

The recorded Ki for C=C(C)Cc1nc2n(c1CC(=C)C)CCc1ccccc1C2OC1CCN(C)CC1.O=C(O)C(=O)O.O=C(O)C(=O)O (stereo not shown) [Example 267, dioxalate] is < 0.3 µM

* * *

# TARGET_ENTITY: human H4 receptor (Homo sapiens)
# PROTOCOL: biochemical
pKi: −log10 of the molar value. Structures can show the parent of a compound that is named as a salt.
Property: pKi; scope: individual compounds

Worked examples, 3 compounds total:
{"columns": ["COMPOUND", "pKi"],
 "data": [
  ["CN1CCC(OC2c3ccccc3CCn3cc(-c4ccc(OCC5CC5)cc4)nc32)CC1 (centres unmarked)", "> 6.52"],
  ["CN1CCC(OC2c3ccccc3CCn3c2nc(-c2ccccc2)c3C(N)=O)CC1 (centres unmarked)", "> 6.52"],
  ["CN1CCC(OC2c3ccccc3CCn3c2nc(-c2ccccc2)c3-c2ccccc2)CC1 (centres unmarked)", "> 6.52"]
]}

The recorded pKi for CN1CCC(OC2c3ccccc3CCn3cc(C=CCC4CCCC4)nc32)CC1 (centres unmarked) is > 7.52

The recorded pKi for CN1CCC(OC2c3ccccc3CCn3cc(-c4cccnc4)nc32)CC1 (centres unmarked) [Example 45, oxalate] is > 6.00

The recorded pKi for CN1CCC(OC2c3cccc(Cc4ccccc4)c3CCn3cc(-c4ccccc4)nc32)CC1 (centres unmarked) is > 6.00

The recorded pKi for COc1cccc(-c2nc3n(c2C)CCc2ccccc2C3OC2CCN(C)CC2)c1 (centres unmarked) is > 7.52

The recorded pKi for CSc1cccc2c1CCn1cc(-c3ccccc3)nc1C2OC1CCN(C)CC1 (centres unmarked) is > 6.00

The recorded pKi for CN1CCC(OC2c3ccccc3CCn3cc(-c4ccc(N(C)C(=O)OC(C)(C)C)cc4)nc32)CC1 (centres unmarked) [Example 97, oxalate] is > 7.52

* * *

Property: melting point; scope: individual compounds
Supply the numeric figure in °C, leaving out any unit text.

Worked examples, 4 compounds total:
{"columns": ["COMPOUND", "melting point, °C"],
 "data": [
  ["CSc1cccc2c1CCn1cc(-c3ccccc3)nc1C2OC1CCN(C)CC1 (centres unmarked)", 134],
  ["Cc1c(-c2ccc(F)cc2)nc2n1CCc1ccccc1C2OC1CCN(C)CC1 (centres unmarked)", 168],
  ["Cc1cccc2c1CCn1cc(-c3ccccc3)nc1C2OC1CCN(C)CC1 (centres unmarked)", 71],
  ["CN1CCC(OC2c3ccccc3CC(C)(C)n3cc(-c4ccccc4)nc32)CC1 (centres unmarked)", 85]
]}

The recorded melting point for Cc1c(C(=O)N(C)Cc2ccccc2)nc2n1CCc1ccccc1C2OC1CCN(C)CC1 (centres unmarked) is 61

The recorded melting point for CN1CCC(OC2c3ccccc3CCn3cc(-c4ccccc4)nc32)CC1 (centres unmarked) is 113

The recorded melting point for CN1CCC(OC2c3ccc(Br)cc3CCn3cc(-c4ccccc4)nc32)CC1 (centres unmarked) is 92

The recorded melting point for Cc1c(-c2ccccc2F)nc2n1CCc1ccccc1C2OC1CCN(C)CC1 (centres unmarked) is 68

The recorded melting point for CN1CCC(OC2c3cccc(Br)c3CCn3cc(-c4ccccc4)nc32)CC1 (centres unmarked) is 83

* * *

Property: melting point; scope: individual compounds
Supply the numeric figure in °C, leaving out any unit text.

{"columns": ["COMPOUND", "UNIT_ABBREVIATION", "MEASURED_VALUE"],
 "data": [
  ["CN1CCC(OC2c3ccccc3CCn3c2nc(-c2ccccc2)c3CO)CC1 (stereo not drawn)", "°C", 120],
  ["CN1CCC(OC2c3ccccc3CCn3cc(-c4ccc(NC(=O)C(C)(C)C)cc4)nc32)CC1 (stereo not drawn)", "°C", 120],
  ["Cc1ccc(-c2nc3n(c2C)CCc2ccccc2C3OC2CCN(C)CC2)cc1 (stereo not drawn)", "°C", 181],
  ["Cc1c(-c2ccsc2)nc2n1CCc1ccccc1C2OC1CCN(C)CC1 (stereo not drawn)", "°C", 74],
  ["CNc1cccc2c1CCn1cc(-c3ccccc3)nc1C2OC1CCN(C)CC1 (stereo not drawn)", "°C", 189],
  ["Cc1c(-c2cccc(Cl)c2)nc2n1CCc1ccccc1C2OC1CCN(C)CC1 (stereo not drawn)", "°C", 72],
  ["CCCNC(=O)c1nc2n(c1C)CCc1ccccc1C2OC1CCN(C)CC1 (stereo not drawn)", "°C", 60],
  ["Cc1c(C(=O)NCc2ccccc2)nc2n1CCc1ccccc1C2OC1CCN(C)CC1 (stereo not drawn)", "°C", 161]
]}

The recorded melting point for CN1CCC(OC2c3ccccc3CCn3cc(-c4ccc(N)cc4)nc32)CC1 (stereo not drawn) is 197

The recorded melting point for CN1CCC(OC2c3ccccc3CCn3c2nc(-c2ccccc2)c3-c2ccccc2)CC1 (stereo not drawn) is 90

The recorded melting point for Cc1c(-c2cccc(F)c2)nc2n1CCc1ccccc1C2OC1CCN(C)CC1 (stereo not drawn) is 132

The recorded melting point for Cc1c(C(=O)c2ccccc2)nc2n1CCc1ccccc1C2OC1CCN(C)CC1.O=CO (stereo not drawn) is 71

The recorded melting point for CN1CCC(OC2c3ccccc3CCn3c2nc(I)c3C(N)=O)CC1 (stereo not drawn) is 85

The recorded melting point for Cc1c(-c2ccc(N3CCOC3=O)cc2)nc2n1CCc1ccccc1C2OC1CCN(C)CC1 (stereo not drawn) is 214

The recorded melting point for Cc1ccc(-c2nc3n(c2C)CCc2ccccc2C3OC2CCN(C)CC2)c(Cl)c1 (stereo not drawn) is 133

The recorded melting point for CN1CCC(OC2c3ccccc3CCn3c2nc(-c2ccccc2)c3I)CC1 (stereo not drawn) is 153

The recorded melting point for CN1CCC(OC2c3ccccc3CCn3c2nc(-c2ccc(Br)cc2)c3Cl)CC1 (stereo not drawn) is 169

The recorded melting point for COc1cccc(-c2nc3n(c2C)CCc2ccccc2C3OC2CCN(C)CC2)c1 (stereo not drawn) is 138

* * *

Property: Ki; scope: individual molecules
# TARGET_ENTITY: UniProt:Q9H3N8
# PROTOCOL: biochemical
Where a name gives a salt, the structure may show the parent alone.

{"columns": ["MOLECULE", "TARGET_ENTITY", "MEASURED_VALUE"],
 "data": [
  ["CN1CCC(OC2c3ccccc3CCn3cc(SCc4cccs4)nc32)CC1 (centres unmarked) [Example 88, oxalate]", "UniProt:Q9H3N8", "< 300 nM"]
]}

The recorded Ki for Cc1c(-c2ccc(NC(=O)NC(C)(C)C)cc2)nc2n1CCc1ccccc1C2OC1CCN(C)CC1 (centres unmarked) is < 30 nM

The recorded Ki for Cc1c(-c2ccc(NC(=O)NC34CC5CC(CC(C5)C3)C4)cc2)nc2n1CCc1ccccc1C2OC1CCN(C)CC1 (centres unmarked) is < 30 nM

The recorded Ki for CN1CCC(OC2c3ccccc3CCn3cc(-c4ccc(NC(=O)C(C)(C)C)cc4)nc32)CC1 (centres unmarked) is < 300 nM

The recorded Ki for CCCCc1ccc(-c2cn3c(n2)C(OC2CCN(C)CC2)c2ccccc2CC3)cc1 (centres unmarked) [Example 41, oxalate] is < 30 nM

* * *

# TARGET_ENTITY: human H4 receptor (Homo sapiens)
# PROTOCOL: biochemical
Where a name gives a salt, the structure may show the parent alone.
Property: IC50; scope: individual compounds

Worked examples, 3 compounds total:
{"columns": ["COMPOUND", "IC50"],
 "data": [
  ["Cc1c(-c2ccc(NC(=O)OC(C)(C)C)cc2)nc2n1CCc1ccccc1C2OC1CCN(C)CC1 (centres unmarked)", "< 30 nM"],
  ["CN1CCC(OC2c3ccccc3CCn3c2nc(-c2ccccc2)c3C(N)=O)CC1 (centres unmarked)", "< 300 nM"],
  ["CN1CCC(OC2c3cccc(Br)c3CCn3cc(I)nc32)CC1 (centres unmarked)", "< 1000 nM"]
]}

The recorded IC50 for CN1CCC(OC2c3ccccc3CCn3cc(SCc4ccccc4)nc32)CC1 (centres unmarked) [Example 67, oxalate] is < 300 nM

The recorded IC50 for CN1CCC(OC2c3ccccc3CCn3cc(CCCC4CCCC4)nc32)CC1 (centres unmarked) is < 30 nM

The recorded IC50 for CN1CCC(OC2c3ccccc3CCn3cc(-c4ccc(C(F)(F)F)cc4)nc32)CC1 (centres unmarked) is < 30 nM

The recorded IC50 for CN1CCC(OC2c3ccccc3CCn3cc(-c4cccc(Cl)c4)nc32)CC1 (centres unmarked) [Example 77, oxalate] is < 300 nM

The recorded IC50 for Cc1c(-c2ccc(NC(=S)NC(C)C)cc2)nc2n1CCc1ccccc1C2OC1CCN(C)CC1 (centres unmarked) is < 30 nM

The recorded IC50 for CN1CCC(OC2c3ccccc3CCn3cc(-c4cccs4)nc32)CC1 (centres unmarked) [Example 47, oxalate] is < 300 nM

The recorded IC50 for CN1CCC(OC2c3ccccc3CCn3cc(-c4ccc(C#N)cc4)nc32)CC1 (centres unmarked) is < 30 nM

The recorded IC50 for CCc1c(-c2ccccc2)nc2n1CCc1ccccc1C2OC1CCN(C)CC1 (centres unmarked) [Example 120, oxalate] is < 30 nM

The recorded IC50 for CN1CCC(OC2c3ccccc3CCn3cc(CCCCc4ccccc4)nc32)CC1 (centres unmarked) [Example 129, oxalate] is < 30 nM

The recorded IC50 for CN1CCC(OC2c3ccccc3CCn3cc(C=CC(C)(C)C)nc32)CC1 (centres unmarked) is < 30 nM

The recorded IC50 for Cc1c(-c2ccc(C=CS(C)(=O)=O)cc2)nc2n1CCc1ccccc1C2OC1CCN(C)CC1 (centres unmarked) is < 30 nM

The recorded IC50 for CN1CCC(OC2c3ccccc3CCn3cc(-c4ccccc4F)nc32)CC1 (centres unmarked) is < 300 nM

The recorded IC50 for CN1CCC(OC2c3ccccc3CCn3c2nc(CCCCCc2ccccc2)c3Cl)CC1 (centres unmarked) [Example 139, oxalate] is < 30 nM

The recorded IC50 for CN1CCC(OC2c3ccccc3CCn3cc(SCCc4ccccc4)nc32)CC1 (centres unmarked) is < 30 nM
